Taken from patent US20100310591A1.

As shown below, each of these binders has a reported T cell proliferative response (HT-2 [3H]TdR uptake) at 0.05 nM value.
biological target: murine class II MHC allele E^k on CH27 B cell lymphoma antigen presenting cells (murine); assay: cell-based or functional assay

As a guide, the following entries are already answered.
Ac-LRMKLPKSIAYLKQATAK-NH2 [Hybrid 4, Ac-LRMKLPKSIAYLKQATAK-NH2] | 5.8 thousands of cpm
Ac-IAYLKQATAK-NH2 [Hybrid 1, Ac-IAYLKQATAK-NH2 (antigenic epitope PGCC 95-104 without Ii-Key)] | 0 thousands of cpm
Ac-LRMKLPKSAKPVSKIAYLKQATAK-NH2 [Hybrid 6, Ac-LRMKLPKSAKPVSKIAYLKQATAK-NH2] | 2.4 thousands of cpm

Query binder follows.
Exercise: Determine its reported T cell proliferative response (HT-2 [3H]TdR uptake) at 0.05 nM: Ac-LRMKLPKSAKPIAYLKQATAK-NH2 [Hybrid 5, Ac-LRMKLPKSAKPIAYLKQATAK-NH2]
Solution: 21.3 thousands of cpm
